Test: Cytotoxicity against human A549 cells assessed as cell viability recovery at 45 uM after 48 hrs by MTT assay
Assay type: cell-based
Conditions: read-out: Activity

smiles.repr: CCCCCCCN1C(=N)N(CCCC[C@H]2CNC(=N)N2CCc2cccc(C(F)(F)F)c2)C[C@@H]1CC1CCCCC1
viability at 48 h, 45 µM: > 60%

====

Experiment: Cytotoxicity against human A549 cells assessed as cell viability recovery up to 100 uM after 48 hrs by MTT assay
Type: cell-based
Details: read-out: Activity
readout: viability at 48 h

smiles.repr: CCCCCCCN1C(=N)N(CCCC[C@H]2CNC(=N)N2CCCCC2CCCCC2)C[C@@H]1CC1CCCCC1
assay.value: > 65%
//
smiles.repr: CCCC[C@H]1CN(CCCC[C@H]2CNC(=N)N2CCc2cccc(C(F)(F)F)c2)C(=N)N1CCCCC1CCCCC1
assay.value: > 65%

====

System: Enterococcus faecium
Experiment: Antimicrobial activity against Enterococcus faecium assessed as inhibition of microbial growth at 45 uM after 24 hrs
Format: functional, organism-based
The source made the active and inactive calls. The calls are words filed in the database; no cut-off is given here.

smiles.repr: N=C1NC[C@H](CCCCN2C[C@@H](Cc3cccc4ccccc34)N(CCc3ccc(-c4ccccc4)cc3)C2=N)N1CCc1cccc(C(F)(F)F)c1
target.or.system: Enterococcus faecium
growth inhibition (GI): Active

smiles.repr: N=C1NC[C@H](CCCCN2C[C@H](CC3CCCCC3)N(CCc3ccc(-c4ccccc4)cc3)C2=N)N1CCc1cccc(C(F)(F)F)c1
target.or.system: Enterococcus faecium
growth inhibition (GI): Active

smiles.repr: CCCCCCCN1C(=N)N(CCCC[C@H]2CNC(=N)N2CCc2cccc(C(F)(F)F)c2)C[C@@H]1CCCC
target.or.system: Enterococcus faecium
growth inhibition (GI): Active

smiles.repr: CCCC[C@H]1CN(CCCC[C@H]2CNC(=N)N2CCc2cccc(C(F)(F)F)c2)C(=N)N1CCCCC1CCCCC1
target.or.system: Enterococcus faecium
growth inhibition (GI): Active

smiles.repr: CCCCCCCN1C(=N)N(CCCC[C@H]2CNC(=N)N2CCCCC2CCCCC2)C[C@H]1Cc1cccc2ccccc12
target.or.system: Enterococcus faecium
growth inhibition (GI): Active

smiles.repr: CCCCCCCN1C(=N)N(CCCC[C@H]2CNC(=N)N2CCc2cccc(C(F)(F)F)c2)C[C@H]1Cc1cccc2ccccc12
target.or.system: Enterococcus faecium
growth inhibition (GI): Active

smiles.repr: CCCCCCCN1C(=N)N(CCCC[C@H]2CNC(=N)N2CCCCC2CCCCC2)C[C@@H]1CCCC
target.or.system: Enterococcus faecium
growth inhibition (GI): Active

====

System: Pseudomonas aeruginosa
Assay: Antimicrobial activity against Pseudomonas aeruginosa assessed as inhibition of microbial growth after 24 hrs
Type: functional
Active and inactive are the calls of the source. The rule behind the calls is not given here.

compound: CCCCCCCN1C(=N)NC[C@@H]1CCCCN1C[C@@H](CCC)N(CCc2cccc(C)c2)C1=N
MIC: inactive
//
compound: CCCCCCCN1C(=N)N(CCCC[C@H]2CNC(=N)N2CCCCC2CCCCC2)C[C@@H]1CC1CCCCC1
MIC: 1.6 µM
//
compound: CCCCCCCN1C(=N)NC[C@@H]1CCCCN1C[C@H]([C@@H](C)CC)N(CC(C)CC)C1=N (stereo partly drawn)
MIC: inactive
//
compound: CCC(C)CN1C(=N)N(CCCC[C@H]2CNC(=N)N2CC2CCC(C)CC2)C[C@@H]1[C@@H](C)CC (stereo partly drawn)
MIC: inactive
//
compound: CC[C@H](C)[C@H]1CN(CCCC[C@H]2CNC(=N)N2CC2CCC(C)CC2)C(=N)N1CCc1cccc(C)c1 (stereo partly drawn)
MIC: inactive
//
compound: CC1CCC(CN2C(=N)NC[C@@H]2CCCCN2CCNC2=N)CC1 (stereo partly drawn)
MIC: inactive
//
compound: CCC(C)CN1C(=N)N(CCCC[C@H]2CNC(=N)N2CC2CCCCC2)C[C@@H]1[C@@H](C)CC (stereo partly drawn)
MIC: inactive
//
compound: CCCC[C@H]1CN(CCCC[C@H]2CNC(=N)N2CCc2cccc(C(F)(F)F)c2)C(=N)N1CCCCC1CCCCC1
MIC: 1.5 µM

Ref: ChEMBL document CHEMBL3421570
